// data source = patent US20220112295A1

# Tgt: T1, recombinant human CD30L isoleucine zipper (huCD30L LZ) (human, UniProt P32971 63-234)
# T1 construct: also called huCD38L LZ; CD30L LZ Hu; not shown: N-terminal isoleucine zipper motif (leucine zipper with leucines replaced by isoleucines)
# T1 sequence: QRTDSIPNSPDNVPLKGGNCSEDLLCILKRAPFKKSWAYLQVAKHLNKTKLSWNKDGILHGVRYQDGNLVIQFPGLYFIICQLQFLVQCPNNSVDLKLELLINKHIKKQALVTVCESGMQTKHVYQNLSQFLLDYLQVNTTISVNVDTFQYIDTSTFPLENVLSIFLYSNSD
# Assay Summary: blocking of human CD30L LZ binding to K299 cells (CD30)
pIC50: −log10 of the molar value.
Endpoint: pIC50

Antibody E (antibody, V domains shown, also called mAb E) VH: QVQLQESGPRLVKPSETLSLTCTVSGGSITNNYWSWIRQPAGKGLEWIGRVYSSGLTNYKPSLKSRVTMSVDTSKNQFSLRLNSVTAADTAVYYCARERATVTTRYHYDGMDVWGQGTSVTVSS VL: QSALTQPASVSGSPGQSITISCTGSSSDIGTYNYVSWYQQYPGKAPELMIYEVNNRPSGVSDRFSGSTSGNTASLTISGLQANDEADYYCSSYSSSSTWVFGGGTKLTVL; 8.68
Antibody A (antibody, V domains shown, Human antibody (XenoMouse); also called mAb A; anti-hCD30L A) VH: QVQLQESGPGLVKPSETLSLTCTVSGGSISSYIWSWIRQPAGKGLEWIGRIYASGNTNYNPSLKSRVTMSVDTSKNQFSLKLSSMTAADTAVYYCARDYRVAGTYYYYYGLDVWGQGTTVTVSS VL: QSALTQPASVSGSPGQSITISCTGTSSDVGVYDYVSWYQQHPGKAPKLMIYEVSNRPSGVSNRFSGSKSGNTASLTISGLQTEDEADYYCSSYTSRSTWVFGGGTKLTVL; 8.82
Antibody F (antibody, V domains shown, also called mAb F) VH: QVQLQESGPGLVKPSETLSLTCTVSGGSISSYYWSWIRQPAGKGLEWIGRIFASGSTNYNPSLRSRVTMSRDTSKNQFSLKLSSVTAADTAVYYCAKERVGVQDYYHYSGMDVWGQGTTVTVSS VL: QSALTQPASVSGSPGQSITISCTGTSSDVGLYNYVSWYQQQPGKAPKLMIYEVSKRPSGVSNRFSGSTSGNTASLTISGLQADDEADYSCSSYTSSSTWVFGGGTKLTVL; 8.70
